Tested on: Scribble PDZ3
Experiment: Phosphomimetic ProP-PD selection with NGS
Type: binding, human
Conditions: mean over selections 1-3; bait Scribble PDZ3
Consider the cut-off 0.004. If the recorded Mean fraction #NGS counts wt peptide / total counts selection is strictly smaller, the label is YES; if not, the label is NO.

SARLWETSI | NO

INPUT: Does the reported Mean fraction #NGS counts wt peptide / total counts selection of the following sequence sit strictly below 0.004? `DKESFLTWL`
OUTPUT: NO

INPUT: Problem: For the sequence `KSEPFLTWL` , is Mean fraction #NGS counts wt peptide / total counts selection under 0.004?
OUTPUT: YES

INPUT: Hello, is Mean fraction #NGS counts wt peptide / total counts selection of the following sequence strictly smaller than 0.004? `ISYRRESAI`
OUTPUT: YES

INPUT: Strictly below 0.004 in Mean fraction #NGS counts wt peptide / total counts selection? `TIKLKTSFF`
OUTPUT: YES

INPUT: Say whether its Mean fraction #NGS counts wt peptide / total counts selection is strictly beneath 0.004. Entry: `PIHSLETSL`
OUTPUT: YES

INPUT: Is Mean fraction #NGS counts wt peptide / total counts selection strictly under 0.004 for the entry `TMFLRETSL` ?
OUTPUT: NO

INPUT: Check if Mean fraction #NGS counts wt peptide / total counts selection falls below 0.004 for `ESREVTTYL` .
OUTPUT: YES

INPUT: Regarding `VRKLPSTTL` , kindly confirm whether its Mean fraction #NGS counts wt peptide / total counts selection is beneath 0.004.
OUTPUT: YES

INPUT: Below 0.004 on Mean fraction #NGS counts wt peptide / total counts selection? Entry `LSIEKETKL`
OUTPUT: NO

###

Test system: Scribble PDZ3
Experiment: Phosphomimetic ProP-PD selection with NGS
Type: binding, human
Conditions: mean over selections 1-3; bait Scribble PDZ3
Provide the recorded Mean fraction #NGS counts wt peptide / total counts selection for the entries that follow.
One number for each entry.

SQSRMSTNM | 0
SIDLWETAL | 0.004105

Kindly give each listed record's Mean fraction #NGS counts wt peptide / total counts selection.
1. GGKRKETLV
2. ARVSKETPL
3. HEKVFTSAL
4. IPLTRTTTF
5. ERLEYETTL

OUTPUT:
1. 6.172e-5
2. 0.1287
3. 0.0001136
4. 0
5. 0.0004529

###

System: Scribble PDZ3
Test: Phosphomimetic ProP-PD selection with NGS
Type: binding, human
Settings: mean over selections 1-3; bait Scribble PDZ3
Protocol: Phage selections were carried out for four rounds following a protocol by Huang and Sidhu (Huang & Sidhu, 2011) with minor modifications. Non‐specific binding phage was removed by pre‐selections against immobilized GST throughout the selection. […] The naïve library and the enriched phage pools of the third day of selection were amplified and barcoded by PCR and analyzed by NGS as described elsewhere (McLaughlin & Sidhu, 2013; Ivarsson et al, 2014). […]
result type: Mean fraction #NGS counts wt peptide / total counts selection
One number for each entry.

Please state Mean fraction #NGS counts wt peptide / total counts selection for every sequence in the list that follows.
1. RPHTNETSL
2. LPKIKETTV

OUTPUT:
[0.0004079, 0.004275]

###

Tested on: Scribble PDZ3
Assay: Phosphomimetic ProP-PD selection with NGS
Type: binding, human
Conditions: mean over selections 1-3; bait Scribble PDZ3
result type: Mean fraction #NGS counts wt peptide / total counts selection

RPLRRESEI | 8.219e-5
RPYRRESEI | 9.302e-5
KRSFIESNV | 0.07707

Recorded Mean fraction #NGS counts wt peptide / total counts selection (sequence `VTSERETNI` ): 0.001424

Value source: paper PMC6100724
